Where do the numbers come from? From PubChem BioAssay (NCI).

Tested on: BT-549 breast
procedure-summary: NCI-60 one-dose screen, 48 h (100 = growth as untreated, 0 = no growth, -100 = all killed)
measurement-setup: 10 µM
About 83,000 compounds went through this panel and 20% of them were active in at least one assay; those are over-represented in the sample as a whole.
Returns one of class 1 or class 0; class 1 when growth is >= 80%.

Look over these answered cases.
compound: Nc1c(C(=O)Nc2ccccc2)sc2nc3c(cc12)C(O)CCC3 (stereo not given)
assigned-category: class 0

compound: Cc1ccc(-c2nc(/C=C3/C(=O)N(C)c4ccc(F)cc43)c3ccccn23)cc1
assigned-category: class 1

compound: O=C(O)CC(Cl)C(Cl)CC(=O)O (stereo not given)
assigned-category: class 1

compound: O=[N+]([O-])c1ccc(Oc2cccnc2)c([N+](=O)[O-])c1
assigned-category: class 0

Entry ClCC#CCSc1ncnc2c1ncn2CC#CCCl : is its growth no less than 80%?
class 0

Say whether C#Cc1ccc(-n2c(/C=C/c3ccc(C(F)(F)F)cc3)nc3ncccc3c2=O)cc1 shows growth of 80% or more.
class 0

Can O=C(Nc1cccc(-n2cc(-c3ccncc3)c(-c3cc(O)cc(Cl)c3)n2)c1)c1ccc(N2CCOCC2)c(C(F)(F)F)c1 be said to have growth at or above 80%?
class 0

Exam item: decide whether the reported growth for CC(=O)c1nc2ccccc2n1CCN1CCN(C)CC1 is at least 80%.
class 0

Exam item: decide whether the reported growth for COc1cc(-c2cc(C(=O)N3CCN(C(=O)c4ccccc4NCc4cccs4)CC3)nc3cc(-c4ccccc4)nn23)cc(OC)c1OC is at least 80%.
class 1

Determine whether this compound has growth no lower than 80%: COc1ccc(-c2nc3ncccn3c2-c2nnc(-c3ccc(F)cc3)o2)cc1
class 1

* * *

System: M14 melanoma
procedure-summary: NCI-60 one-dose screen, 48 h
measurement-setup: 10 µM
This is part of a sample that, as a whole, favours compounds with a hit. Of some 83,000 tested, about 20% had one in any assay. The source made the active and inactive calls. The calls were made as follows: active = growth percent below 10; inactive = the rest.
Answer with one of the outcomes given here: class 1 (active), class 0 (inactive)

Observe how each entry below is paired with its result.
molecule: CCN(CCCCCCCCCCN1CC(=O)N(CCCCCCCCCCN(CC)Cc2ccccc2OC)CC1=O)Cc1ccccc1OC
assigned-category: class 1
//
molecule: O=C(Nc1ccc(CN2CCc3nc4cc(O)c(O)cc4cc32)cc1)c1ccc(Cl)c(Cl)c1
assigned-category: class 0
//
molecule: O=C(N/N=C/c1ccccc1)C(Oc1ccccc1)c1ccccc1 (stereo unspecified)
assigned-category: class 0
//
molecule: COc1ccc(-c2nc3sc(-c4ccc(OC)cc4)c(-c4ccc(OC)cc4)n3c2/C=C/c2ccc(C(C)C)cc2)cc1
assigned-category: class 0
//
molecule: c1ccc(CNc2ncnc3scc(-c4cccs4)c23)nc1
assigned-category: class 0
//
molecule: COc1ccc(-c2cc(-c3cccc(NS(C)(=O)=O)c3)nc(N)c2C#N)cc1
assigned-category: class 1
//
molecule: CCOC(=O)N1C/C(=C/c2ccc(OC)cc2)C(=O)/C(=C/c2ccc(OC)cc2)C1
assigned-category: class 1
//
molecule: C#Cc1ccc(-n2c(/C=C/c3ccc(C(F)(F)F)cc3)nc3ncccc3c2=O)cc1
assigned-category: class 0

Query: recorded result category for COc1ccc(-c2nc3sc(C4CC4)nn3c2/C=C2/C(=O)Nc3ccc(OC)cc32)cc1 in this test
class 0

What was the test verdict on CC(C)(C#N)Nc1ccccc1 ?
class 0

Tell me the assay call for COc1ccccc1CNCCCN1C(=O)c2ccc3c4c(ccc(c24)C1=O)C(=O)N(CCCN)C3=O please.
class 1
